All values here come from patent US20180036441A1.

TEST TARGET: T1, MUC1 on HCT116/MUC1 cells (UniProt P15941 24-1255, limits assumed)
T1 construct: whole, on cells; also called MUC1 overexpressed cell line
T1 sequence (P15941 24-1255 limits assumed): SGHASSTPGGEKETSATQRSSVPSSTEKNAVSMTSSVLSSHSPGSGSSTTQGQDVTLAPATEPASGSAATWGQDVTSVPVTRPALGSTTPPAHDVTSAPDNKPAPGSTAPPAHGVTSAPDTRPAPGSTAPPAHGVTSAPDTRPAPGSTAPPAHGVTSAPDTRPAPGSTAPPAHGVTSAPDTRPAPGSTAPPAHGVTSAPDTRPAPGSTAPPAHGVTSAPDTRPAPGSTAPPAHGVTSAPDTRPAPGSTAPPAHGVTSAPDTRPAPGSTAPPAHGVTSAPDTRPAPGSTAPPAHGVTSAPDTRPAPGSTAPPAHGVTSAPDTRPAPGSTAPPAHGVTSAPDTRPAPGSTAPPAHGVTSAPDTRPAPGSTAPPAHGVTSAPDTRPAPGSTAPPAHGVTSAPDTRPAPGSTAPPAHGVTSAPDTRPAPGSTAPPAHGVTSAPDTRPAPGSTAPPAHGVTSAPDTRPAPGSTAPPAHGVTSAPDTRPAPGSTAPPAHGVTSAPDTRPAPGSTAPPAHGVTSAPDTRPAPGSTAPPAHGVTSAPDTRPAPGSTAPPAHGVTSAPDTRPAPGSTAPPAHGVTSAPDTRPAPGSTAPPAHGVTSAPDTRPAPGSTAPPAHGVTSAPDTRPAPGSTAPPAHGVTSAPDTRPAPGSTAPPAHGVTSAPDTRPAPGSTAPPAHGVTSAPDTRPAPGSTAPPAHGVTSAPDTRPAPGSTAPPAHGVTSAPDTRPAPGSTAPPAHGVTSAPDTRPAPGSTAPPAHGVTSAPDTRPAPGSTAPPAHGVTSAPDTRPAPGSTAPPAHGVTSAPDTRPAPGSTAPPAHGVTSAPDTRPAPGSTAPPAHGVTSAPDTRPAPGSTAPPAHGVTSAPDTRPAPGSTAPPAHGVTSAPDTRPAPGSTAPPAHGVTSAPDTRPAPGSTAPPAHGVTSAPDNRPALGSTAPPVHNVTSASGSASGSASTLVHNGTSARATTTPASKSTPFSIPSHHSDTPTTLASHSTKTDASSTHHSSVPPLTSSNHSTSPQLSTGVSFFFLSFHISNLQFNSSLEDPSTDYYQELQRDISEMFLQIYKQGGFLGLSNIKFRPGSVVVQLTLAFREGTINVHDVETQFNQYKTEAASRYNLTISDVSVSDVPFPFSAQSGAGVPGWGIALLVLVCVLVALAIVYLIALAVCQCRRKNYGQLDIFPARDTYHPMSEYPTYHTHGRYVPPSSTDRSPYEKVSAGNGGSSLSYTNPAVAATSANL
TEST NAME: FACS titration, HCT116/MUC1 cells, antibody at 0.488 nM
ENDPOINT LABEL: geometric mean
// print number alone

- BINDER: "VH4 + VL1 (antibody, V domains shown, Humanized IgG expressed in HEK293; also called humanized antibody VH4+VL1) VH: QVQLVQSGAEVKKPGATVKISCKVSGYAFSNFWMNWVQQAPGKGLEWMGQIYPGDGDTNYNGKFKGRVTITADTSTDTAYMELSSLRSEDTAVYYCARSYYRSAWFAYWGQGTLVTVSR VL: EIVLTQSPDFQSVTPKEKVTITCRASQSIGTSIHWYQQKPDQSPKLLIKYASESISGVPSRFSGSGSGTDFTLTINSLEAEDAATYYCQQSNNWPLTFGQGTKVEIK"
  geometric mean: 2.54
- BINDER: "VH1 + VL1 (antibody, V domains shown, Humanized IgG expressed in HEK293; also called humanized antibody VH1+VL1) VH: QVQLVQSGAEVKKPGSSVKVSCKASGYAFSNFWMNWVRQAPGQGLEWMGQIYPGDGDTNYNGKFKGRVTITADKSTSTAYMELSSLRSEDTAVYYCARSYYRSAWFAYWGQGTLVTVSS VL: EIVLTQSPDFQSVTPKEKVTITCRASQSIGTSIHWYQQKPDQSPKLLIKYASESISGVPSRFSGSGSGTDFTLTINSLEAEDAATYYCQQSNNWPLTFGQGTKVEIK"
  geometric mean: 3
- BINDER: "VH2 + VL3 (antibody, V domains shown, Humanized IgG expressed in HEK293; also called humanized antibody VH2+VL3) VH: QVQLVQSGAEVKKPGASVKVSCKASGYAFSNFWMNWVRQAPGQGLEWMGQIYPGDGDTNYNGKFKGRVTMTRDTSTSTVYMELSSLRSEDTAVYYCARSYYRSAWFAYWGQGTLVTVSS VL: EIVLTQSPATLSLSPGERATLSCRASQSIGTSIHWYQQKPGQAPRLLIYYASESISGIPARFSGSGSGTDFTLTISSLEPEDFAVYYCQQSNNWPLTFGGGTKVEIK"
  geometric mean: 2.74

Turning now to a further binder:
Asked: Consider the binder VH2 + VL1 (antibody, V domains shown, Humanized IgG expressed in HEK293; also called humanized antibody VH2+VL1) VH: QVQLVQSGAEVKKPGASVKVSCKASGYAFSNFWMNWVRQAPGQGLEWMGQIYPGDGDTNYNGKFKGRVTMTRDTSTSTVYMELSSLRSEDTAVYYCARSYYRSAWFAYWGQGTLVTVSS VL: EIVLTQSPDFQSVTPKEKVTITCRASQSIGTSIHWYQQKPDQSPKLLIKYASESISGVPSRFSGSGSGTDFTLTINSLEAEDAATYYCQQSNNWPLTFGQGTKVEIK and give its measured geometric mean.
Given back: 3.27
